# Test Target: Integrin alpha-5/beta-1 (Homo sapiens, UniProt P05556+P08648)
# Assay Details: Binding affinity to alpha5beta1 integrin receptor (unknown origin) incubated fro 30 mins by competitive solid-phase binding assay
# Type: protein-complex assay
Assay Readout: IC50 (nM)

# Compound, Test Target, Assay Readout, Reading
records = [
    ("Cc1ccccc1NC(=O)N1C(=O)C[C@@H]1C(=O)NCCC(=O)O", "Integrin alpha-5/beta-1 (Homo sapiens, UniProt P05556+P08648)", "IC50", 11.9),
    ("Cc1ccccc1C(=O)N1C(=O)C[C@H]1C(=O)O", "Integrin alpha-5/beta-1 (Homo sapiens, UniProt P05556+P08648)", "IC50", 59.3),
]

P. Cc1ccccc1NC(=O)N1CCC[C@H]1C(=O)O
Q. Cc1ccccc1C(=O)N1C(=O)CC1CC(=O)O (configuration not stated)
q: Field: lower recorded IC50 (choose P or Q ) // caller expects the label of the chosen entry
a: P
(P: 136 nM, Q: 409 nM)
